System: Crude diglycosidase
assayNotes: Examination of temperature in the conversion into isoflavone aglycons by diglycosidase using soybean materials
Type: biochemical, Penicillium multicolor IAM7153
Design: concentration or dose not given beside the values
conditionSet: 55° C., heat treatment of enzyme no, reaction time 6 h
Decomposition efficiency of glycitin family in defatted soybean values by entry
readoutLabel: Decomposition efficiency of glycitin family in defatted soybean (%)

| smilesText | unitSpec | endpointResult |
| --- | --- | --- |
| COc1cc2c(=O)c(-c3ccc(O)cc3)coc2cc1O[C@@H]1O[C@H](COC(=O)CC(=O)O)[C@@H](O)[C@H](O)[C@H]1O | % | 42.7 |
| COc1cc2c(=O)c(-c3ccc(O)cc3)coc2cc1O | % | 57.3 |
